System: OE33 (Esophageal Adenocarcinoma)
Test Details: Bliss excess, mean over the matrix (fraction); higher = more synergy;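 also: after 72 h of two-drug dosing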
Property: Bliss excess; scope: individual molecules
Returns: the value as a bare number; no unit string appended.

# Molecule, Bliss excess
measured = [
    ("CN(CCO)CC[C@H](CSc1ccccc1)Nc1ccc(S(=O)(=O)NC(=O)c2ccc(N3CCC([C@@H](O)c4ccccc4-c4ccc(Cl)cc4)CC3)cc2)cc1S(=O)(=O)C(F)(F)F [AZD4320] + C[C@@H]1COCCN1C2=NC(=NC(=C2)C3(CC3)[S@](=N)(=O)C)C4=C5C=CNC5=NC=C4 [AZD6738] (first compound max 1 µM, 7x7, partner max 10 µM)", -0.0295),
]

// query Consider the molecule Cc1c2c(nn1C)CSCc1cc(n(C)n1)CSc1cc(c3ccccc3c1)OCCCc1c(C(=O)O)n(C)c3c-2c(Cl)ccc13 [AZD5991] + CC(=O)O[C@H]1C(=O)[C@@]2(C)[C@H]([C@H](OC(=O)c3ccccc3)[C@]3(O)C[C@H](OC(=O)[C@H](O)[C@@H](NC(=O)c4ccccc4)c4ccccc4)C(C)=C1C3(C)C)[C@]1(OC(C)=O)CO[C@@H]1C[C@@H]2O [Paclitaxel] (first compound max 1 µM, 7x7, partner max 3 µM) and give its measured Bliss excess.
// result -0.0386

// query Could you share which Bliss excess value was measured for COc1cc2c(cc1OCCCCCOc1cc3c(cc1OC)C(=O)N1C=C(C)C[C@H]1C=N3)N=C[C@@H]1CC(C)=CN1C2=O [SG3199] + O=C(c1cc(Cc2n[nH]c(=O)c3ccccc23)ccc1F)N1CCN(C(=O)C2CC2)CC1 [Olaparib] (first compound max 0.001 µM, 7x7, partner max 10 µM) ?
// result -0.0276

----------
Test system: DU-145 (Prostate Carcinoma)
Test Details: Bliss excess, mean over the matrix (fraction); higher = more synergy
Parameter: Bliss excess
Hey, just send me the number, nothing else.

Record excerpt, results attached:
# Compound, Target Entity, Parameter, Value Reported
measured = [
    ("C[C@@H]1COCCN1c1cc(C2([S@](C)(=N)=O)CC2)nc(-c2ccnc3[nH]ccc23)n1 [AZD6738] + C1CC(C1)(C(=O)[O-])C(=O)[O-].N.N.[Pt+2] [Carboplatin] (first compound max 10 µM, 7x7, partner max 10 µM)", "DU-145 (Prostate Carcinoma)", "Bliss excess", -0.043),
    ("Cc1cc2ncnn2cc1Nc1ncc2c(n1)n(C1CCOCC1)c(=O)n2C [AZD7648] + C[C@@H]1COCCN1C2=NC(=NC(=C2)C3(CC3)[S@](=N)(=O)C)C4=C5C=CNC5=NC=C4 [AZD6738] (first compound max 10 µM, 7x7, partner max 10 µM)", "DU-145 (Prostate Carcinoma)", "Bliss excess", -0.0068),
    ("CC1(C)CCC(CN2CCN(c3ccc(C(=O)NS(=O)(=O)c4ccc(NCC5CCOCC5)c([N+](=O)[O-])c4)c(Oc4cnc5[nH]ccc5c4)c3)CC2)=C(c2ccc(Cl)cc2)C1 [Venetoclax] + C[C@@H]1COCCN1C2=NC(=NC(=C2)C3(CC3)[S@](=N)(=O)C)C4=C5C=CNC5=NC=C4 [AZD6738] (first compound max 1 µM, 7x7, partner max 10 µM)", "DU-145 (Prostate Carcinoma)", "Bliss excess", -0.0097),
]

API: the following record is the query input.
// query Find the measured Bliss excess: item COc1cccc(OCCCN)c1-c1cc(Nc2cnc(C#N)cn2)n[nH]1 [Prexasertib] + CN(C)CCCOc1ccc(-c2ccc3ncc4c(c3c2)n(C2CCOCC2)c(=O)n4C)cn1 [AZD0156] (first compound max 1 µM, 7x7, partner max 1 µM) , target or system DU-145 (Prostate Carcinoma).
// result -0.0405

----------
Bliss excess reference
Tested on: EW-1 (Ewing's Sarcoma)
Test Details: Bliss excess, mean over the matrix (fraction); higher = more synergy
Form: value (number only, do not type unit).

# Compound, Parameter, Value Reported
data = [
    ("NC1(C(=O)N[C@@H](CCO)c2ccc(Cl)cc2)CCN(c2ncnc3[nH]ccc23)CC1 [Capivasertib] + Cn1cnc2c(F)c(Nc3ccc(Br)cc3Cl)c(C(=O)NOCCO)cc21 [Selumetinib] (first compound max 10 µM, 7x7, partner max 10 µM)", "Bliss excess", 0.0819),
]

# evaluate next
// query Which Bliss excess is listed for COc1cccc(OCCCN)c1-c1cc(Nc2cnc(C#N)cn2)n[nH]1 [Prexasertib] + Cc1cc2ncnn2cc1Nc1ncc2c(n1)n(C1CCOCC1)c(=O)n2C [AZD7648] (first compound max 1 µM, 7x7, partner max 10 µM) ?
// result -0.0217

----------
Test system: CADO-ES1 (Ewing's Sarcoma)
Test Details: Bliss excess, mean over the matrix (fraction); higher = more synergy
Quick rule for you: Bliss excess at 0.009 or higher means Fulfilled, lower means Not fulfilled.

# Molecule, Answer Label
measured = [
    ("NC1(C(=O)N[C@@H](CCO)c2ccc(Cl)cc2)CCN(c2ncnc3[nH]ccc23)CC1 [Capivasertib] + COc1nnc2ccc(N3CCC(c4ccc(OCCN5CCN(C)C(=O)[C@H]5C)cc4)CC3)nn12 [AZD5153] (first compound max 10 µM, 7x7, partner max 1 µM)", "Fulfilled"),
    ("Cc1c2c(nn1C)CSCc1cc(n(C)n1)CSc1cc(c3ccccc3c1)OCCCc1c(C(=O)O)n(C)c3c-2c(Cl)ccc13 [AZD5991] + C[C@@H]1COCCN1C2=NC(=NC(=C2)C3(CC3)[S@](=N)(=O)C)C4=C5C=CNC5=NC=C4 [AZD6738] (first compound max 1 µM, 7x7, partner max 10 µM)", "Fulfilled"),
    ("C[C@@H](c1ccc2nccn2c1)n1nnc2ncc(-c3cnn(C)c3)nc21 [Savolitinib] + CN(CC[C@H](CSC1=CC=CC=C1)NC2=C(C=C(C=C2)S(=O)(=O)NC(=O)C3=CC=C(C=C3)N4CCC(CC4)[C@H](C5=CC=CC=C5C6=CC=C(C=C6)Cl)O)S(=O)(=O)C(F)(F)F)CCO [AZD4320] (first compound max 1 µM, 7x7, partner max 1 µM)", "Not fulfilled"),
    ("Cc1cc2ncnn2cc1Nc1ncc2c(n1)n(C1CCOCC1)c(=O)n2C [AZD7648] + CN(C)CCCOc1ccc(-c2ccc3ncc4c(c3c2)n(C2CCOCC2)c(=O)n4C)cn1 [AZD0156] (first compound max 10 µM, 7x7, partner max 1 µM)", "Fulfilled"),
    ("CCc1c2c(nc3ccc(O)cc13)-c1cc3c(c(=O)n1C2)COC(=O)[C@]3(O)CC [SN-38] + CN(C)CCCOc1ccc(-c2ccc3ncc4c(c3c2)n(C2CCOCC2)c(=O)n4C)cn1 [AZD0156] (first compound max 0.3 µM, 7x7, partner max 1 µM)", "Fulfilled"),
]

// query Given the entry CN(CCO)CC[C@H](CSc1ccccc1)Nc1ccc(S(=O)(=O)NC(=O)c2ccc(N3CCC([C@@H](O)c4ccccc4-c4ccc(Cl)cc4)CC3)cc2)cc1S(=O)(=O)C(F)(F)F [AZD4320] + C[C@@H]1COCCN1C2=NC(=NC(=C2)C3(CC3)[S@](=N)(=O)C)C4=C5C=CNC5=NC=C4 [AZD6738] (first compound max 1 µM, 7x7, partner max 10 µM) , answer whether its Bliss excess meets or surpasses 0.009.
// result Not fulfilled

// query Given the entry CN(CCO)CC[C@H](CSc1ccccc1)Nc1ccc(S(=O)(=O)NC(=O)c2ccc(N3CCC([C@@H](O)c4ccccc4-c4ccc(Cl)cc4)CC3)cc2)cc1S(=O)(=O)C(F)(F)F [AZD4320] + C=CCn1c(=O)c2cnc(Nc3ccc(N4CCN(C)CC4)cc3)nc2n1-c1cccc(C(C)(C)O)n1 [AZD1775] (first compound max 1 µM, partner max 1 µM) , answer whether its Bliss excess meets or surpasses 0.009.
// result Not fulfilled

// query Hi team, for Cc1cc2ncnn2cc1Nc1ncc2c(n1)n(C1CCOCC1)c(=O)n2C [AZD7648] + O=C(c1cc(Cc2n[nH]c(=O)c3ccccc23)ccc1F)N1CCN(C(=O)C2CC2)CC1 [Olaparib] (first compound max 10 µM, 7x7, partner max 10 µM) , is the recorded Bliss excess at or above 0.009?
// result Not fulfilled

----------
Test system: A4-Fuk (B-Lymphoblastic Leukemia)
Test Details: Bliss excess, mean over the matrix (fraction); higher = more synergy
Entries annotated with measured Bliss excess

Record excerpt, results attached:
# Compound, Bliss excess
rows = [
    ("CCN(CCO)CCCOc1ccc2c(Nc3cc(CC(=O)Nc4cccc(F)c4)[nH]n3)ncnc2c1 [AZD2811] + O=C(c1cc(Cc2n[nH]c(=O)c3ccccc23)ccc1F)N1CCN(C(=O)C2CC2)CC1 [Olaparib] (first compound max 1 µM, 7x7, partner max 10 µM)", -0.0212),
    ("CC(=O)c1c(C)c2cnc(Nc3ccc(N4CCNCC4)cn3)nc2n(C2CCCC2)c1=O [Palbociclib] + CC1(C)CCC(CN2CCN(c3ccc(C(=O)NS(=O)(=O)c4ccc(NCC5CCOCC5)c([N+](=O)[O-])c4)c(Oc4cnc5[nH]ccc5c4)c3)CC2)=C(c2ccc(Cl)cc2)C1 [Venetoclax] (first compound max 10 µM, 7x7, partner max 1 µM)", -0.0926),
    ("Cn1cnc2c(F)c(Nc3ccc(Br)cc3Cl)c(C(=O)NOCCO)cc21 [Selumetinib] + CCN(CCO)CCCOc1ccc2c(Nc3cc(CC(=O)Nc4cccc(F)c4)[nH]n3)ncnc2c1 [AZD2811] (first compound max 10 µM, 7x7, partner max 1 µM)", 0.176),
    ("C=CCn1c(=O)c2cnc(Nc3ccc(N4CCN(C)CC4)cc3)nc2n1-c1cccc(C(C)(C)O)n1 [AZD1775] + Nc1ccn([C@@H]2O[C@H](CO)[C@@H](O)C2(F)F)c(=O)n1 [Gemcitabine] (first compound max 1 µM, partner max 0.3 µM)", 0.009),
    ("Cc1c2c(nn1C)CSCc1cc(n(C)n1)CSc1cc(c3ccccc3c1)OCCCc1c(C(=O)O)n(C)c3c-2c(Cl)ccc13 [AZD5991] + CC(=O)O[C@H]1C(=O)[C@@]2(C)[C@H]([C@H](OC(=O)c3ccccc3)[C@]3(O)C[C@H](OC(=O)[C@H](O)[C@@H](NC(=O)c4ccccc4)c4ccccc4)C(C)=C1C3(C)C)[C@]1(OC(C)=O)CO[C@@H]1C[C@@H]2O [Paclitaxel] (first compound max 1 µM, 7x7, partner max 3 µM)", -0.0069),
]

// query If you can, please state the reported Bliss excess value of COc1nnc2ccc(N3CCC(c4ccc(OCCN5CCN(C)C(=O)[C@H]5C)cc4)CC3)nn12 [AZD5153] + CCN(CCO)CCCOc1ccc2c(Nc3cc(CC(=O)Nc4cccc(F)c4)[nH]n3)ncnc2c1 [AZD2811] (first compound max 1 µM, 7x7, partner max 1 µM) .
// result -0.0025

// query What value of measured Bliss excess is listed for CN(CCO)CC[C@H](CSc1ccccc1)Nc1ccc(S(=O)(=O)NC(=O)c2ccc(N3CCC([C@@H](O)c4ccccc4-c4ccc(Cl)cc4)CC3)cc2)cc1S(=O)(=O)C(F)(F)F [AZD4320] + Cn1cnc2c(F)c(Nc3ccc(Br)cc3Cl)c(C(=O)NOCCO)cc21 [Selumetinib] (first compound max 1 µM, 7x7, partner max 3 µM) ?
// result 0.073

// query Quick one: Bliss excess of Cc1c2c(nn1C)CSCc1cc(n(C)n1)CSc1cc(c3ccccc3c1)OCCCc1c(C(=O)O)n(C)c3c-2c(Cl)ccc13 [AZD5991] + CCN(CCO)CCCOc1ccc2c(Nc3cc(CC(=O)Nc4cccc(F)c4)[nH]n3)ncnc2c1 [AZD2811] (first compound max 1 µM, 7x7, partner max 1 µM) ?
// result 0.0579

// query For the compound shown here, C=CCn1c(=O)c2cnc(Nc3ccc(N4CCN(C)CC4)cc3)nc2n1-c1cccc(C(C)(C)O)n1 [AZD1775] + O=C(c1cc(Cc2n[nH]c(=O)c3ccccc23)ccc1F)N1CCN(C(=O)C2CC2)CC1 [Olaparib] (first compound max 1 µM, partner max 10 µM) , give the reported Bliss excess.
// result -0.0794

// query For the compound shown here, COc1cccc(OCCCN)c1-c1cc(Nc2cnc(C#N)cn2)n[nH]1 [Prexasertib] + Cc1cc2ncnn2cc1Nc1ncc2c(n1)n(C1CCOCC1)c(=O)n2C [AZD7648] (first compound max 1 µM, 7x7, partner max 10 µM) , give the reported Bliss excess.
// result -0.0989

// query Give the measured Bliss excess of Cc1c2c(nn1C)CSCc1cc(n(C)n1)CSc1cc(c3ccccc3c1)OCCCc1c(C(=O)O)n(C)c3c-2c(Cl)ccc13 [AZD5991] + CC1(C)CCC(CN2CCN(c3ccc(C(=O)NS(=O)(=O)c4ccc(NCC5CCOCC5)c([N+](=O)[O-])c4)c(Oc4cnc5[nH]ccc5c4)c3)CC2)=C(c2ccc(Cl)cc2)C1 [Venetoclax] (first compound max 1 µM, 7x7, partner max 1 µM) .
// result -0.03

// query Request the reported Bliss excess associated with CN(CCO)CC[C@H](CSc1ccccc1)Nc1ccc(S(=O)(=O)NC(=O)c2ccc(N3CCC([C@@H](O)c4ccccc4-c4ccc(Cl)cc4)CC3)cc2)cc1S(=O)(=O)C(F)(F)F [AZD4320] + Cc1cc2ncnn2cc1Nc1ncc2c(n1)n(C1CCOCC1)c(=O)n2C [AZD7648] (first compound max 1 µM, 7x7, partner max 10 µM)
// result -0.0211

// query Item under review: C[C@@H](c1ccc2nccn2c1)n1nnc2ncc(-c3cnn(C)c3)nc21 [Savolitinib] + Cc1c2c(nn1C)CSCc1cc(n(C)n1)CSc1cc(c3ccccc3c1)OCCCc1c(C(=O)O)n(C)c3c-2c(Cl)ccc13 [AZD5991] (first compound max 1 µM, 7x7, partner max 1 µM) . Reported Bliss excess?
// result 0.0027
